Values were extracted from ChEMBL document CHEMBL1201862.

- Test system: HOP-18
- experiment summary: NCI tumour cell line growth inhibition, 48 h
Active and inactive are the calls of the source. No stated cut-off is given here; in the data, active = GI50 up to about 1.1 µM and inactive = higher.
Record form. Attribute: GI50. Fill in for each entry.

In: // lookup GI50 | system=HOP-18 | key= COc1ccccc1C1C(Cl)C(=O)N1NC(=O)Cc1ccccc1 (stereo unspecified)
Out: 30.7 µM (inactive)

In: # repeat for COc1cc(C(=O)c2cocc2C(=O)c2ccc3c(c2)OCO3)cc(OC)c1OC
Out: > 51.1 µM (inactive)

In: Please do the same for COc1ccccc1NC(=O)C1=C(C)NC(C)=C(C(=O)Nc2ccccc2OC)C1c1ccccc1Cl as well.
Out: > 100 µM (inactive)

In: Same question for C/C(=N\NC(N)=S)c1ccc(/C(C)=N/NC(N)=S)cc1 please.
Out: > 100 µM (inactive)

In: How about this molecule: CC1=NCCc2cc3[nH]c4ccccc4c3cc21
Out: 18.7 µM (inactive)

In: Similarly, c1ccc(-n2cnnc2-c2nsc3ccccc23)cc1 ?
Out: 9.71 µM (inactive)

In: Item: O=c1[nH]c(=O)n(C2OC(CO)C(O)C(O)C2O)cc1F (stereo unspecified)
Out: > 100 µM (inactive)

In: Then COC(=O)C(CCC1(C)OCCO1)=[N+]=[N-] ?
Out: > 100 µM (inactive)

In: Queued: CCOC(=O)C1=C(O)C(=O)c2ccccc2C1=O
Out: > 100 µM (inactive)

In: One more molecule: Cc1cccc(NC(=O)CSc2nnc(-c3ccc(/N=C\c4ccc(Cl)cc4)cc3)o2)c1
Out: > 100 µM (inactive)

In: Follow-up entry: C[n+]1cn(CC(=O)c2ccccc2)c(C(N)=O)c1N
Out: > 100 µM (inactive)

In: Thanks! And O=C(O)Cc1ccc2c(c1O)C(=O)c1c(ccc(CC(=O)O)c1O)C2=O ?
Out: > 100 µM (inactive)

In: Do the same for O=C1C=C(c2c(O)ccc3ccccc23)c2ccccc2C1=O please
Out: 8.81 µM (inactive)

In: Same lookup for CC(C)(C)C1C=C(Sc2ccccc2)C(=O)O1 (stereo unspecified) , please.
Out: 75.9 µM (inactive)

In: How about COC(=O)/C(=N\Nc1nnc(C)n1N)C(C#N)c1ccccc1 (stereo unspecified) ?
Out: 7.05 µM (inactive)

In: Also CCN(CC)CCCC(C)Nc1c2ccc(Cl)cc2nc2cc(Cl)ccc12 (stereo unspecified) , if possible.
Out: 5.42 µM (inactive)

In: And then CN(C)C=C1C(Cl)=C(C=O)CC(C=O)=C1Cl , what is it?
Out: 13.3 µM (inactive)

In: Can you handle O=C1Nc2cccc3ncn(c23)C2=C1CCCC2 next?
Out: 4.98 µM (inactive)

In: Here is the next molecule: O=c1ccn([C@@H]2C=C(CO)[C@@H](O)[C@H]2O)c(=O)[nH]1
Out: > 625 µM (inactive)

In: Subsequent entry: NC(=O)C(=Cc1ccc(C(O)P(=O)(O)O)cc1)C(N)=O (stereo unspecified)
Out: > 100 µM (inactive)

In: // same read-out, input: O=C1C=CC(=O)C12CCc1ccccc12
Out: > 33.2 µM (inactive)

----------
- Test system: OVCAR-5
- experiment summary: NCI tumour cell line growth inhibition, 48 h
The source made the active and inactive calls. No stated cut-off is given here; in the data, active = GI50 up to about 1.1 µM and inactive = higher.
Your reply should match one of these outcome classes. active, inactive

In: I would be grateful if you could indicate the recorded call for Nc1ncc2c(n1)-c1ccccc1OC2NC1CC1 (stereo unspecified) .
Out: inactive

In: Similarly, COc1ccc(/N=N/C(C(=O)c2ccccc2)C(=O)c2ccccc2)cc1 ?
Out: inactive

In: How about O=C(CCCC1Cc2ccccc2C1=O)c1ccccc1 (stereo unspecified) ?
Out: inactive

In: Again, but for CN1C(=O)CC2CCCN2C1=O (stereo unspecified)
Out: inactive

In: Same for CN(C)C1=Nc2ccccc2C(=S)N2CSCC12 (stereo unspecified)
Out: inactive

In: Same read-out for CC1C(c2ccccc2)O[B-](F)(c2ccccc2)[NH+]1C (stereo unspecified) ?
Out: inactive

In: Entry COc1cc2c3c(n(CCCNCCO)c(=O)c2cc1OC)-c1cc2c(cc1C3=O)OCO2 please
Out: active

In: Follow-up entry: CCOC(=O)C(C)c1cc(C2(C)OCCO2)c(C)o1 (stereo unspecified)
Out: inactive

In: Query CCOC(=O)[C@@]1(C)C=C2O[C@@H]3OC4(CCCCC4)O[C@@H]3C2=C2C(O)=CC=C(O)[C@]21C(=O)OC next
Out: inactive

In: Same for COC(=O)c1c(C)cccc1C1CN=NC12Cc1cccc(C)c1C2=O (stereo unspecified)
Out: inactive

In: Now this one: O=C1C2CC[C@@H]3C(=O)C(Cl)(Cl)[C@@H]3CCC2C1(Cl)Cl (stereo partly specified)
Out: inactive

----------
- System: U-251
- experiment summary: NCI tumour cell line growth inhibition, 48 h
Activity calls are given as the source filed them. Cut-off read from the data, not from the text of the source: active = GI50 up to about 1.1 µM and inactive = higher.
Choose one outcome from this list and give only that: 1 (yes) for active, 0 (no) for inactive

In: Just curious, what result did CC(C(=O)O)C(C)(O)C(=O)O (stereo not given) get here?
Out: 0 (no)

In: Same read-out for COc1cc(OC)c2c3c(OC)cc(OC)c4c(=O)c(O)c(C[C@@H](C)O)c(c5c(C[C@@H](C)O)c(O)c(=O)c1c25)c43 ?
Out: 0 (no)

In: Moving on to the next compound: COC(=O)c1ccc2c(c1)CC1(C2)Cc2cc3c(cc2C1=O)CCC3 (stereo not given)
Out: 0 (no)

In: What about O=C(/C=C/c1ccc(OCC(=O)N2CCN(c3ccccc3)CC2)cc1)c1ccccc1 ?
Out: 0 (no)

In: Now this one: COc1ccc2cc1Oc1ccc(cc1)CC1c3cc(OC)c(cc3CCN1C)Oc1c(OC)c(OC)cc3c1C(C2)N(C)CC3 (stereo not given)
Out: 0 (no)

In: What about this compound? COc1c(OC(C)=O)c(OC(C)=O)cc2c1-c1ccc(SC)c(=O)cc1C(NC(C)=O)CC2 (stereo not given)
Out: 1 (yes)

In: Moving on to Cc1ccccc1C(=O)c1cc(O)ccc1O
Out: 0 (no)

In: Ok, now NC(=O)C(=CNC(=S)Nc1cccc(C(F)(F)F)c1)C(N)=O
Out: 0 (no)

In: Can you handle COC(=O)/C=C/CC(=O)NS(C)(=O)=O next?
Out: 0 (no)

In: Another compound to check: CCOC(=N)CC(=O)Nc1cccc(C)c1C
Out: 0 (no)

----------
- Tested on: MOLT-4
- experiment summary: NCI tumour cell line growth inhibition, 48 h
Activity calls are given as the source filed them. No stated cut-off is given here; in the data, active = GI50 up to about 1.1 µM and inactive = higher.
I'd be grateful if you could share measured GI50 for these entries.

In: Fill blank: measured GI50 of the compound C/C(=N\NC(N)=S)c1ccc(/C(C)=N/NC(N)=S)cc1 is ____.
Out: > 100 µM (inactive)

In: What would you report for CSc1nc(NC2CCCC2)c2cc[nH]c2n1 ?
Out: 42.4 µM (inactive)

In: How about this compound: CC1C(c2ccccc2)O[B-](F)(c2ccccc2)[NH+]1C (configuration not stated)
Out: > 100 µM (inactive)

In: Also COc1cc(C(=O)c2cocc2C(=O)c2ccc3c(c2)OCO3)cc(OC)c1OC , if possible.
Out: 0.991 µM (active)

In: Also O=C1c2c(Br)sc(Br)c2[C@@H](O)[C@H]1O ?
Out: 5.97 µM (inactive)

In: // repeat for O=C(O)C12CC3CC(CC(F)(C3)C1)C2 and report
Out: > 100 µM (inactive)

In: Let us now turn to O=C(O)Cc1ccc2c(c1O)C(=O)c1c(ccc(CC(=O)O)c1O)C2=O
Out: > 100 µM (inactive)

In: Note, next up: CC1=NCCc2cc3[nH]c4ccccc4c3cc21
Out: 11.5 µM (inactive)

In: How about this compound: Oc1ccc2c(c1)OCC(O)(c1ccccc1O)C2 (configuration not stated)
Out: > 100 µM (inactive)

In: Try Cn1c(SCc2ccc(F)cc2)nnc1C12CC3CC(CC(C3)C1)C2 next.
Out: 13.6 µM (inactive)

In: // same read-out, input: CCOC(=O)C1(Br)S(=O)(=O)OCCOS1(=O)=O
Out: > 100 µM (inactive)

In: Input CO[P@@]1(=O)O[C@@H](c2ccccc2)[C@H](O)[C@@]1(O)c1ccccc1
Out: 22.8 µM (inactive)

----------
Exercise: for every item that follows, state its recorded GI50.
- Test system: UO-31
- experiment summary: NCI tumour cell line growth inhibition, 48 h
Active and inactive are the calls of the source. No stated cut-off is given here; in the data, active = GI50 up to about 1.1 µM and inactive = higher.

In: Looking for the measured GI50 of CC1=C(C(=O)Nc2ccccc2)C(c2ccc(C3C(C(=O)Nc4ccccc4)=C(C)NC(C)=C3C(=O)Nc3ccccc3)cc2)C(C(=O)Nc2ccccc2)=C(C)N1 , can you help?
Out: 9.27 µM (inactive)

In: And COc1ccccc1NC(=O)C1=C(C)NC(C)=C(C(=O)Nc2ccccc2OC)C1c1ccccc1Cl ?
Out: 28.5 µM (inactive)

In: Field entry: CC(C)(Cl)C(Br)CCC(C)(Cl)C(Br)CBr (stereo not given)
Out: 31.9 µM (inactive)

In: Ok, now CC1=Nc2c(O)nc(S)nc2NC(c2ccc(Cl)c(Cl)c2)C1 (stereo not given)
Out: 29.9 µM (inactive)

In: Same for CCOC(=N)CC(=O)Nc1cccc(C)c1C
Out: > 100 µM (inactive)

In: Can you handle CC(C)CCNC(=O)c1ccc(CNC(=O)/C=C/c2ccc(-c3ccccc3[N+](=O)[O-])o2)cc1 next?
Out: 76.7 µM (inactive)

In: Queued: O=C1NC(N2CCCC(CO)C2)=N/C1=C\c1cccs1 (stereo not given)
Out: > 100 µM (inactive)

In: And what about the compound CCOC(=O)C1(Br)S(=O)(=O)OCCOS1(=O)=O ?
Out: > 100 µM (inactive)

In: // query: NC(=O)C(=Cc1ccc(C(O)P(=O)(O)O)cc1)C(N)=O (stereo not given)
Out: > 100 µM (inactive)

In: Follow-up entry: COc1cc(/C=C(\C#N)C(N)=C(C#N)C#N)cc(O)c1O
Out: > 77.8 µM (inactive)
